# STUDY_TARGET: GCS enzyme contained within Golgi preparations isolated from human A375 malignant melanoma skin cells (Homo sapiens, UniProt Q16739)
# Construct: endogenous levels of GCS enzyme contained within Golgi preparations isolated from human A375 malignant melanoma skin cells; endogenous in cells
# PROCEDURE_TEXT: UDP-Glo glucosylceramide synthase biochemical assay
# ASSAY_SETUP: crude Golgi preparation from A375 cells; C6 ceramide and UDP-glucose substrates; 20 h incubation at room temperature; UDP detected by luminescence
Provide the reported pEC50 of each item.
By convention, pEC50 is the negative base-10 log of a molar concentration.

Challenge: Which pEC50 is listed for CC(C)(O)C(C1CC1)N1Cc2cccc(OCc3c(Cl)cnc4c3OCO4)c2C1=O (single isomer, unassigned) ?
Response given: 7.80

Challenge: Another: Cc1cnc2c(c1NCc1cccc3c1C(=O)N(C(C1CC1)C(C)(C)O)C3)OCO2 (single isomer, unassigned)
Response given: 7.68

Challenge: Another: Cc1nnc(-c2ccc(-c3cc(Cl)cc4c3C(=O)N(C(C3CC3)C(C)(C)O)C4)cc2)o1 (single isomer, unassigned)
Response given: 9.10

###

Provide the reported EC50 of each item.
# STUDY_TARGET: GCS enzyme contained within Golgi preparations isolated from human A375 malignant melanoma skin cells (Homo sapiens, UniProt Q16739)
# Construct: endogenous levels of GCS enzyme contained within Golgi preparations isolated from human A375 malignant melanoma skin cells; endogenous in cells; host or cells: A375 human malignant melanoma cells (crude Golgi preparation)
# Sequence (Q16739 1-394): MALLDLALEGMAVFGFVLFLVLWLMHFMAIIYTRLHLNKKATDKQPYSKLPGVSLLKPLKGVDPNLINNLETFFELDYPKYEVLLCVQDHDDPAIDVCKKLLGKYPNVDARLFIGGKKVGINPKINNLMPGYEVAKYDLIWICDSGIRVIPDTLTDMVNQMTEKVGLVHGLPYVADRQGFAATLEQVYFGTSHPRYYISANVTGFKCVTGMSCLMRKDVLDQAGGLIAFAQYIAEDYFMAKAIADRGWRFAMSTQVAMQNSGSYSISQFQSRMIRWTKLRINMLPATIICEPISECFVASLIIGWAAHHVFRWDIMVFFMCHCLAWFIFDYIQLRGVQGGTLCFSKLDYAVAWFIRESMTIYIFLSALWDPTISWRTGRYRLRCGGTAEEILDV
# PROCEDURE_TEXT: UDP-Glo glucosylceramide synthase biochemical assay
# ASSAY_SETUP: crude Golgi preparation from A375 cells; C6 ceramide and UDP-glucose substrates; 20 h incubation at room temperature; UDP detected by luminescence
API: value field is a number in nM; no unit string.

Challenge: Which EC50 is listed for Cc1cc(-c2cccc3c2C(=O)N(CCC2CN4CCC2CC4)C3)ccn1 (racemic) [Compound 54] ?
Response given: 97

Challenge: Another: C[C@@H](N1Cc2cccc(NC(=O)c3c(C(F)(F)F)cnc4ccccc34)c2C1=O)C(C)(C)O [Compound 127]
Response given: 38

Challenge: Another: Cc1ccc(Cl)c(C(=O)Nc2cccc3c2C(=O)N([C@@H](CO)C(C)C)C3)c1F [Compound 122]
Response given: 18

Challenge: Another: CCc1nnc(-c2ccc(-c3cccc4c3C(=O)N([C@H](C3CC3)C(C)(C)O)C4)cc2)o1 [Compound 76]
Response given: 26

Challenge: Another: Cc1nnc(-c2ccc(-c3cccc4c3C(=O)N([C@H](C3CC3)C(C)(C)O)C4C)cc2)o1 (single isomer, unassigned) [Compound 62]
Response given: 53

Challenge: Another: COc1ccc(-c2cccc3c2C(=O)N(C(C2CC2)C(C)(C)O)C3)cc1OC (racemic) [Compound 19]
Response given: 28

Challenge: Another: CC[C@@H](N1Cc2cccc(-c3ccc(-c4nnc(C)o4)cc3)c2C1=O)C(C)(C)O [Compound 48]
Response given: 81

Challenge: Another: Cc1nnc(-c2ccc(-c3ccc(Cl)c4c3C(=O)N([C@H](C3CC3)C(C)(C)O)C4)cc2)o1 [Compound 38]
Response given: 0.55

Challenge: Another: Cc1cccc(C(=O)Nc2cccc3c2C(=O)N(C(C2CC2)C(C)(C)O)C3)c1Cl (single isomer, unassigned) [Compound 113]
Response given: 1.2

Challenge: Another: CCOc1ccccc1C(=O)Nc1cccc2c1C(=O)N(CC1CC3CCN1CC3)C2 (racemic) [Compound 108]
Response given: 270

Challenge: Another: Cn1ccc2c(C(=O)Nc3cccc4c3C(=O)N(C(C3CC3)C3CC3)C4)cccc21 [Compound 126]
Response given: 35

Challenge: Another: CC(C)(O)C(C1CC1)N1Cc2cccc(NC(=O)c3c(Cl)cnc4c3CCO4)c2C1=O (single isomer, unassigned) [Compound 155]
Response given: 0.19

Challenge: Another: O=C(Nc1ccc(Cl)c2c1C(=O)N(CC1CC1)C2)c1ccnc2c1CCC2 [Compound 147]
Response given: 560

Challenge: Another: O=C(Nc1cccc2c1C(=O)N(c1ccc(F)cc1)C2)OC1CN2CCC1CC2 (stereo not drawn) [Compound 150]
Response given: 740

Challenge: Another: Cc1nc(-c2cccc(-c3cccc4c3C(=O)N([C@H](C3CC3)C(C)(C)O)C4)c2)no1 [Compound 81]
Response given: 31

###

# STUDY_TARGET: GCS enzyme contained within Golgi preparations isolated from human A375 malignant melanoma skin cells (Homo sapiens)
# Construct: endogenous levels of GCS enzyme contained within Golgi preparations isolated from human A375 malignant melanoma skin cells; endogenous in cells
# PROCEDURE_TEXT: UDP-Glo glucosylceramide synthase biochemical assay
# ASSAY_SETUP: crude Golgi preparation from A375 cells; C6 ceramide and UDP-glucose substrates; 20 h incubation at room temperature; UDP detected by luminescence
Provide the reported log10 of EC50 of each item.
Annotation: log10 of EC50, nM basis.

Challenge: Which log10 of EC50 is listed for O=C1c2c(cccc2-c2ccccc2OCC(F)(F)F)CN1CCC1CCC(O)C1 (racemic) ?
Response given: 2.58

Challenge: Another: `C[C@@H](N1Cc2cccc(-c3ccccc3OCC(F)(F)F)c2C1=O)C(C)(C)O`
Response given: 2.15

Challenge: Another: Cc1cnc2c(c1C(=O)Nc1cccc3c1C(=O)N(C(C1CC1)C(C)(C)O)C3)CCO2 (single isomer, unassigned)
Response given: -0.52

Challenge: Another: `O=C(Nc1cccc2c1C(=O)N(C(C1CC1)C1CC1)C2)c1cccc2c1OCC2`
Response given: 2.41

Challenge: Another: `Cc1nnc(-c2ccc(-c3c(Cl)ccc4c3C(=O)N([C@H](C3CC3)C(C)(C)O)C4)cc2)o1`
Response given: -0.01

Challenge: Another: `CCOc1ccccc1C(=O)Nc1cccc2c1C(=O)N(C(C1CC1)C1CC1)C2`
Response given: 1.63

Challenge: Another: `CC(C)(O)[C@@H](C1CC1)N1Cc2cccc(-c3ccc(-c4ncco4)cc3)c2C1=O`
Response given: 1.59

Challenge: Another: Cc1c(C(=O)Nc2cccc3c2C(=O)N(C(C2CC2)C(C)(C)O)C3)cccc1C(F)(F)F (single isomer, unassigned)
Response given: 1.00

Challenge: Another: `O=C1c2c(cccc2-c2ccccc2OCC(F)(F)F)CN1[C@@H](CO)C1CC1`
Response given: 1.96

Challenge: Another: `Cc1nnc(-c2ccc(-c3c(F)cc(Cl)c4c3C(=O)N([C@H](C3CC3)C(C)(C)O)C4)cc2)o1`
Response given: -0.60

Challenge: Another: `COc1cc(-c2cccc3c2C(=O)N([C@H](C2CC2)C(C)(C)O)C3)ccc1-c1nnc(C)o1`
Response given: 1.08

Challenge: Another: `Cc1cc2c(c(-c3ccc(-c4nnc(C)o4)cc3)c1)C(=O)N([C@H](C1CC1)C(C)(C)O)C2`
Response given: 0.95

Challenge: Another: COCC(C1CC1)N1Cc2cccc(NC(=O)c3ccnc4c3CCC4)c2C1=O (single isomer, unassigned)
Response given: 1.90

Challenge: Another: CC(C)(O)C(C1CC1)N1Cc2cccc(NC(=O)c3c(F)ccc(F)c3Cl)c2C1=O (single isomer, unassigned)
Response given: 0.18

Challenge: Another: Cc1nnc(-c2ccc(-c3ccnc4c3C(=O)N(C(C3CC3)C(C)(C)O)C4)cc2)o1 (single isomer, unassigned)
Response given: 2.54

###

# STUDY_TARGET: GCS enzyme contained within Golgi preparations isolated from human A375 malignant melanoma skin cells (Homo sapiens, UniProt Q16739)
# Construct: endogenous levels of GCS enzyme contained within Golgi preparations isolated from human A375 malignant melanoma skin cells; endogenous in cells
# PROCEDURE_TEXT: UDP-Glo glucosylceramide synthase biochemical assay
# ASSAY_SETUP: crude Golgi preparation from A375 cells; C6 ceramide and UDP-glucose substrates; 20 h incubation at room temperature; UDP detected by luminescence
# From the text: UDP-Glo™ Glucosylceramide Synthase Biochemical Assay […] Using Promega's UDP-Glo™ Glycosyltransferase assay kit (Promega Corporation, Madison, WI, USA (Promega)), GCS activity was indirectly measured by detecting the amount of UDP produced. […] The generated light was detected using a luminometer. […] luminescence values (RLUs) were normalized to mean “min” and “max” effects, as determined on each plate. […]
pEC50: −log10 of the molar value.
Assign condition met to entries whose pEC50 meets or exceeds 7; assign condition not met to the rest.

Challenge: Given the entry CCOc1ccccc1C(=O)Nc1cccc2c1C(=O)N([C@@H](CO)C1CC1)C2 [Compound 102] , answer whether its pEC50 meets or surpasses 7.
Response given: condition not met

Challenge: Another: O=C(Nc1cccc2c1C(=O)N(CC1(O)CCC1)C2)c1ccnc2c1CCC2 [Compound 166]
Response given: condition not met

Challenge: Another: Cc1nnc(-c2cccc(-c3cccc4c3C(=O)N([C@H](C3CC3)C(C)(C)O)C4)c2)o1 [Compound 13]
Response given: condition not met

Challenge: Another: Cc1cc2c(c(NC(=O)c3ccnc4c3CCC4)c1)C(=O)N(CC1CC1)C2 [Compound 148]
Response given: condition not met

Challenge: Another: COc1cc(Cl)nc(-c2cccc3c2C(=O)N([C@H](C2CC2)C(C)(C)O)C3)c1 [Compound 93]
Response given: condition met

Challenge: Another: CC(C)(O)C(C1CC1)N1Cc2cccc(/C=C/c3ccnc4c3CCC4)c2C1=O (single isomer, unassigned) [Compound 171]
Response given: condition not met

Challenge: Another: Cc1cnc2c(c1C(=O)Nc1cccc3c1C(=O)N(C(C1CC1)C1CC1)C3)OCO2 [Compound 117]
Response given: condition met
